FYI, the data here is from paper PMC11862924.

- target_or_test_system: YTHDF2 YTH domain (Homo sapiens, UniProt Q9Y5A9)
- Sequence (Q9Y5A9 383-553): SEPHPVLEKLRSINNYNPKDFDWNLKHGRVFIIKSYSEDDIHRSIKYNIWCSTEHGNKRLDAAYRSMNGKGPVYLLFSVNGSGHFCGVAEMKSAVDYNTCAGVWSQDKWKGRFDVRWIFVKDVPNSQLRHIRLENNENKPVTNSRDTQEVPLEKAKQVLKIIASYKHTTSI
- protocol_description: AlphaScreen assay
- test_context: 100 μM compound
Examples of compounds with documented inhibition at 100 μM in AlphaScreen follow.

For orientation, consider the following solved cases.
O=C(O)c1ccc(-n2cc(C(=O)c3cc(Cl)ccc3O)cn2)cc1
> 80%
CC(C)c1ccc(O)c(C(=O)c2cnn(-c3ccc(C(=O)O)cc3)c2)c1
> 80%
COc1ccc(O)c(C(=O)c2cnn(-c3ccc(C(=O)O)cc3)c2)c1
> 80%

Now consider a different compound.
Qu. Value lookup for inhibition at 100 μM in AlphaScreen; key = `O=C(O)c1ccc(-n2cc(C(=O)c3cc(Cl)cc(Cl)c3O)cn2)cc1`
Ans. > 80%
